This collection of values is drawn from patent US8575135B2.

system: NS5A chimeric genotype 2a JFH-1 replicon with genotype 2a J6 strain NS5A gene (M31 present); assay: microbe, parasite or virus in culture; format: cell-based, HCV; conditions: Hepatitis C virus, read-out: 2a J6
pEC50: −log10 of the molar value.
metric: pEC50

**Query** Any idea what its pEC50 is? The compound is COC[C@H]1C[C@@H](c2ncc(-c3ccc4c(c3)COc3cc5c(ccc6nc([C@@H]7CC[C@H](C)N7C(=O)[C@@H](NC(=O)OC)C(C)C)[nH]c65)cc3-4)[nH]2)N(C(=O)[C@@H](NC(=O)OC)C(C)C)C1 [Example PZ]
**Result** > 9.00

**Query** Fill blank: measured pEC50 of the compound COC[C@H]1C[C@@H](c2ncc(-c3ccc4c(c3)COc3cc5c(ccc6nc([C@@H]7C[C@H]8C[C@H]8N7C(=O)[C@@H](NC(=O)OC)C(C)C)[nH]c65)cc3-4)[nH]2)N(C(=O)[C@H](NC(=O)OC)c2ccccc2)C1 [Example PR] is ____.
**Result** > 9.00

**Query** Need pEC50 of COC(=O)N[C@H](C(=O)N1CCCC1c1ncc(-c2ccc3c(c2)COc2cc4c(ccc5nc([C@@H]6C[C@@H]7CCC[C@@H]7N6C(=O)[C@@H](NC(=O)OC)C(C)C)[nH]c54)cc2-3)[nH]1)C(C)C (stereo partly drawn) [Example PO] , thanks.
**Result** 8.30 to 9.00
